# pIC50 per entry
tested on: HER3ss-Gluc; assay: HER3ss assay; format: cell-based; conditions: HEK-293T T-rex cells, transient transfection, doxycycline, 24 h; read-out: HER3 ss IC50
pIC50: −log10 of the molar value. Square brackets hold non-standard residues; d marks the D form. Peptide text beside a SMILES is read from it. NMeAla(5-Cl-benzothien-3-yl) = CN[C@@H](Cc1csc2ccc(Cl)cc12)C(=O)O; Ala(1-cyclohexenyl) = N[C@@H](CC1=CCCCC1)C(=O)O; Butanoyl(2R-oxy,4-CN) = N#CCC[C@@H](O)C(=O)O; NMeL = CN[C@@H](CC(C)C)C(=O)O; NMeA = CN[C@@H](C)C(=O)O
PROPERTY_LABEL: pIC50

CC(C)C[C@@H]1NC(=O)[C@H](Cc2cn(Cc3ccccc3)c3ccccc23)N(C)C(=O)[C@H](CC(C)C)NC(=O)[C@H](CC(C)C)N(C)C(=O)[C@H](CC(C)C)NC(=O)[C@@H](C)OC(=O)[C@H](C)N(C)C1=O [C-72] (HELM PEPTIDE1{L.[meA].[C[C@@H](O[*:1])C(=O)[*:2]].L.[meL].L.[CN([C@@H](Cc1cn(Cc2ccccc2)c2ccccc12)C(=O)[*:2])[*:1]]}$PEPTIDE1,PEPTIDE1,1:R1-7:R2$$$V2.0) = 6.65
CC(C)C[C@@H]1NC(=O)[C@H](Cc2csc3ccc(Cl)cc23)N(C)C(=O)[C@H](CC2=CCCCC2)NC(=O)[C@H](CC(C)C)N(C)C(=O)[C@H](CC2=CCCCC2)NC(=O)[C@@H](CCC#N)OC(=O)[C@H](C)N(C)C1=O [C-87] (cyclo(L[NMeA][Butanoyl(2R-oxy,4-CN)][Ala(1-cyclohexenyl)][NMeL][Ala(1-cyclohexenyl)][NMeAla(5-Cl-benzothien-3-yl)])) = 7.96

====

system: BT474 breast tumor cell line; test: BT474 assay (Alamar blue); assay type: cell-based; conditions: Homo sapiens, BT-474, 72 h
Numbered stars: 1 amine (or outer) side, 2 acyl side, 3 side chain; on linkers, the order of the positions; unused ones are H or OH. Square brackets hold non-standard residues; d marks the D form. Peptide text beside a SMILES is read from it. NMeTrp(1-(4-Br-benzyl)) = CN[C@@H](Cc1cn(Cc2ccc(Br)cc2)c2ccccc12)C(=O)O; X17 = CN([C@@H](Cc1cn(-c2ccccc2)c2ccccc12)C(=O)[*:2])[*:1]; Butanoyl(2R-oxy,4-CN) = N#CCC[C@@H](O)C(=O)O; Nva(5,5,5-F3) = N[C@@H](CCC(F)(F)F)C(=O)O; Abu(4,4,4-F3) = N[C@@H](CC(F)(F)F)C(=O)O; Ala(cPr) = N[C@@H](CC1CC1)C(=O)O; NMeL = CN[C@@H](CC(C)C)C(=O)O; NMeA = CN[C@@H](C)C(=O)O
PROPERTY_LABEL: EC50 (µM)

Cc1cc(Cn2cc(C[C@H]3C(=O)N[C@@H](CC(C)C)C(=O)N(C)[C@@H](C)C(=O)O[C@H](CCC#N)C(=O)N[C@@H](CC(C)C)C(=O)N(C)[C@@H](CC(C)C)C(=O)N[C@@H](CC(C)C)C(=O)N3C)c3ccccc32)no1 [C-15] (HELM PEPTIDE1{L.[meA].[N#CCC[C@@H](O[*:1])C(=O)[*:2]].L.[meL].L.[Cc1cc(Cn2cc(C[C@@H](C(=O)[*:2])N(C)[*:1])c3ccccc32)no1]}$PEPTIDE1,PEPTIDE1,1:R1-7:R2$$$V2.0) = 2.62
CC(C)C[C@@H]1NC(=O)[C@H](Cc2cn(Cc3ccc(Br)cc3)c3ccccc23)N(C)C(=O)[C@H](CC(C)C)NC(=O)[C@H](CC(C)C)N(C)C(=O)[C@H](CC2CC2)NC(=O)[C@@H](CCC#N)OC(=O)[C@H](C)N(C)C1=O [C-38] (cyclo([Ala(cPr)][NMeL]L[NMeTrp(1-(4-Br-benzyl))]L[NMeA][Butanoyl(2R-oxy,4-CN)])) = 3.88
CC(C)C[C@@H]1NC(=O)[C@H](Cc2cn(Cc3ccc(Br)cc3)c3ccccc23)N(C)C(=O)[C@H](CCC(F)(F)F)NC(=O)[C@H](CC(C)C)N(C)C(=O)[C@H](CC(F)(F)F)NC(=O)[C@@H](CCC#N)OC(=O)[C@H](C)N(C)C1=O [C-57] (cyclo(L[NMeA][Butanoyl(2R-oxy,4-CN)][Abu(4,4,4-F3)][NMeL][Nva(5,5,5-F3)][NMeTrp(1-(4-Br-benzyl))])) = 0.832
CC(C)C[C@@H]1NC(=O)[C@H](Cc2cn(-c3ccccc3)c3ccccc23)N(C)C(=O)[C@H](CC(C)C)NC(=O)[C@H](CC(C)C)N(C)C(=O)[C@H](CC(F)(F)F)NC(=O)[C@@H](CCC#N)OC(=O)[C@H](C)N(C)C1=O [C-51] (cyclo(L[NMeA][Butanoyl(2R-oxy,4-CN)][Abu(4,4,4-F3)][NMeL]L[X17])) = 3.44
CC(C)C[C@@H]1NC(=O)[C@H](Cc2cn(Cc3cccc(OC(F)(F)F)c3)c3ccccc23)N(C)C(=O)[C@H](CC(C)C)NC(=O)[C@H](CC(C)C)N(C)C(=O)[C@H](CC(C)C)NC(=O)[C@@H](CCC#N)OC(=O)[C@H](C)N(C)C1=O [C-75] (HELM PEPTIDE1{L.[meA].[N#CCC[C@@H](O[*:1])C(=O)[*:2]].L.[meL].L.[CN([C@@H](Cc1cn(Cc2cccc(OC(F)(F)F)c2)c2ccccc12)C(=O)[*:2])[*:1]]}$PEPTIDE1,PEPTIDE1,1:R1-7:R2$$$V2.0) = 8.22
